B1: library; numbered along this chain (parent)
chain: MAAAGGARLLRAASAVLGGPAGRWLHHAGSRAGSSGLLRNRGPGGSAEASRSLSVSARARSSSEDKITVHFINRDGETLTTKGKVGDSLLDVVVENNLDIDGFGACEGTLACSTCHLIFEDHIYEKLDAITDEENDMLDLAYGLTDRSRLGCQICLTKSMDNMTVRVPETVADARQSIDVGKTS

Variants of: B1
Experiment: scaled log2 fold change in cell abundance, elesclomol vs control (0 = silent mean, 1 = nonsense mean) (scaled log2 ratio); higher = higher viability under elesclomol (loss of FDX1 cuproptosis function);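 note: variant abundance is its share of total variant reads in each endpoint sample, from next-generation sequencing of the integrated ORF PCR-amplified out of genomic DNA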
Settings: with ABC1 FDX1 KO; elesclomol 5 nM; glucose 10 mM; 14 days
Lab note: compare scaled log2 fold change against -0.04. Equal or greater, write 1.0. Smaller, write 0.0.

- A141L: 0.0
- S88N: 1.0
- K158C: 1.0
- A4R: 0.0
- S61G: 0.0
- L144S: 0.0
- G181M: 0.0
- D136M: 1.0
- I67F: 1.0
- I100Q: 1.0
- D128Y: 0.0
- E64W: 0.0
- E133K: 1.0
- K182M: 1.0
- V167Q: 1.0

Reference source for all entries: the supplement of paper PMC12855868
